biological target: human P2X7R (HEK293-hP2X7R) (Homo sapiens, UniProt Q99572)
Sequence (Q99572 whole entry): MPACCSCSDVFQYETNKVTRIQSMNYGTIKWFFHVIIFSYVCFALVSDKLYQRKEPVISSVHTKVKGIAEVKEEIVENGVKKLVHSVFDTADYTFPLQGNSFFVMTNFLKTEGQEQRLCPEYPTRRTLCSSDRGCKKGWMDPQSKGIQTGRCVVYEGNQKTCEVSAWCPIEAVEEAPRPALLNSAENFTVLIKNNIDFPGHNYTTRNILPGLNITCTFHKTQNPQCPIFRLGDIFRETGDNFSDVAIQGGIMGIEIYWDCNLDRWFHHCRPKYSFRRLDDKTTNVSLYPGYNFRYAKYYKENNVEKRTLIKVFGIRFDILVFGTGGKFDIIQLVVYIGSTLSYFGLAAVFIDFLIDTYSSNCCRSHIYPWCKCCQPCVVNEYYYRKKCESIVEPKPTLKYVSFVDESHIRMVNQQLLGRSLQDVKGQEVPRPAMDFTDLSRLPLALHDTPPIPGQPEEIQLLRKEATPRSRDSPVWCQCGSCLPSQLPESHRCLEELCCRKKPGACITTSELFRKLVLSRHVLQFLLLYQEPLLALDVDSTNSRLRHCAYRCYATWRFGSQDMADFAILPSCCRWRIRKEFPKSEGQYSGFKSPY
pKd: −log10 of the molar value.

COMPOUND: [11CH3]N1C(=O)CC[C@H]1C(=O)NCc1cccc(C(F)(F)F)c1Cl [[^11C]GSK1482160]
pKd: 8.94
